Molecular target: T1, human PD-L2 antigen (Homo sapiens, UniProt Q9BQ51)
T1 sequence (Q9BQ51 20-273): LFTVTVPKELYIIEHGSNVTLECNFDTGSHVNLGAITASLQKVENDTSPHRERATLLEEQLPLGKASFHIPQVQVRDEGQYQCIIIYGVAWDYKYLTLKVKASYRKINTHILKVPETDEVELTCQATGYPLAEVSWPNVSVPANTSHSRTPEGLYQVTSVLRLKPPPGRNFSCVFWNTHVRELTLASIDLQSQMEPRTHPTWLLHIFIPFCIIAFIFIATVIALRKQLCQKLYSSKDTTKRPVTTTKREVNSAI
Experiment: Single cycle kinetics on Biacore 8K, binding to human PD-L2 antigen
Details: Table 2, cell culture supernatants

- molecule: "VH1/VK2: humanized anti-PD-L2 variant; SEQ ID NO: 2/SEQ ID NO: 11 (antibody, V domains shown) VH: QVQLVQSGAELKKPGSSVKVSCKASGYAFSNYFIEWVKQPPGKGLEWIGLNIPGSGGSNYAEKFKGRATITADKSTSTAYMELSSLTSEDSAVYFCARRRLPPDWYFDVWGQGTTVTVSS VL: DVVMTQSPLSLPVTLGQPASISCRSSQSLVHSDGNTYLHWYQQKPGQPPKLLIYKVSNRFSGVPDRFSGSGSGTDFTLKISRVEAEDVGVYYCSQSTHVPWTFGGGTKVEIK"
  kd: "0.000116 s⁻¹"
- molecule: "VH8/VK3: humanized anti-PD-L2 variant; SEQ ID NO: 8/SEQ ID NO: 12 (antibody, V domains shown) VH: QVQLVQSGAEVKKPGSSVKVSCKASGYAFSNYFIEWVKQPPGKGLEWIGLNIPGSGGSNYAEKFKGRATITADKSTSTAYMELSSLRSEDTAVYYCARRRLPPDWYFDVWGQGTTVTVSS VL: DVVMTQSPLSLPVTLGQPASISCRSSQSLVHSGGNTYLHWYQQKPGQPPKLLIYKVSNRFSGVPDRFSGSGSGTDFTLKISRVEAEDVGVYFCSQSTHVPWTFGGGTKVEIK"
  kd: "0.000388 s⁻¹"
- molecule: "VH4/VK2: humanized anti-PD-L2 variant; SEQ ID NO: 5/SEQ ID NO: 11 (antibody, V domains shown) VH: QVQLVQSGAEVKKPGSSVKVSCKASGYAFSNYFIEWVKQPPGKGLEWIGLNIPGSGGSNYAEKFKGRVTITADKSTSTAYMELSSLRSEDTAVYYCARRRLPPDWYFDVWGQGTTVTVSS VL: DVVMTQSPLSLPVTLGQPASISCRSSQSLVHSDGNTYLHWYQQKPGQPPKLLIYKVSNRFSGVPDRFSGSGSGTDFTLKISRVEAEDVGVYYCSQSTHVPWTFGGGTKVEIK"
  kd: "0.000129 s⁻¹"
